experimental-system: T1, CRBN, Q96SW2;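 also: pooled lentiviral library of zinc finger degron-EGFP fusions in mCherry-positive Jurkat cells, FACS-sorted after compound exposure, with degron abundance counted by next-generation sequencing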
T1 chain: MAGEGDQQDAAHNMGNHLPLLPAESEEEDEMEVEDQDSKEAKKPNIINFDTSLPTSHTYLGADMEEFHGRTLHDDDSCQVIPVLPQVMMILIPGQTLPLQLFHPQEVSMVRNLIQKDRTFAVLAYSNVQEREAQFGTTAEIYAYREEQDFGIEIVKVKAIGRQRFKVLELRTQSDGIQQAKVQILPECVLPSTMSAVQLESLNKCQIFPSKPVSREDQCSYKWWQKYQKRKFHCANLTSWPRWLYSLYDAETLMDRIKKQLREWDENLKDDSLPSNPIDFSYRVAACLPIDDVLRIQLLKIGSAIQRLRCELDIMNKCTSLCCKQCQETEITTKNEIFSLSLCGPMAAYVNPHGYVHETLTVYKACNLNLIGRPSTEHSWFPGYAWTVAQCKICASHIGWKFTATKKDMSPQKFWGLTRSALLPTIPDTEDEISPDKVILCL
procedure-details: log2 fold change of degron read counts, EGFP-low vs EGFP+ sorted cells (limma voom), compound-induced degradation; higher = more compound-induced degradation of the degron-EGFP fusion; degrons are variants of IKZF1/3 zinc finger 2; compound dose not given here
condition-set: Jurkat; 18 h; compound: compound 19 (5-tert-butyl-thalidomide)
In all, about 8,300 sequences were measured (“log2 fold change of degron read counts, EGFP-low vs EGFP+ sorted cells (limma voom), compound-induced degradation”: median about -1.1, highest 2% from about 3.2 on). The full list was thinned out, with the highest values kept by preference.
// label = TRUE if log2 fold change of degron read counts is not less than -0.6, otherwise FALSE

>  <monomer-sequence>
LVCEICGFFCTQKGNLLRHIKL [46L_47V_49E_50I_52G_53F_54F_55C_67L_, Q9UKT9]

>  <label>
TRUE

$$$$
>  <monomer-sequence>
FGCEICGATFTQKGNLLRHIKL [46F_47G_49E_50I_52G_53A_54T_55F_67L_, Q9UKT9]

>  <label>
TRUE

$$$$
>  <monomer-sequence>
FWCEICGATFTQKGNLLRHIKL [46F_47W_49E_50I_52G_53A_54T_55F_67L_, Q9UKT9]

>  <label>
TRUE

$$$$
>  <monomer-sequence>
FFCPICGHGFTQKGNLLRHIKL [46F_47F_49P_50I_52G_53H_54G_55F_67L_, Q9UKT9]

>  <label>
FALSE

$$$$
>  <monomer-sequence>
LLCPICGFPCTQKGNLLRHIKL [46L_47L_49P_50I_52G_53F_54P_55C_67L_, Q9UKT9]

>  <label>
FALSE

$$$$
>  <monomer-sequence>
FTCNQCGRRFTQKGNLLRHIKL [46F_47T_49N_50Q_52G_53R_54R_55F_67L_, Q9UKT9]

>  <label>
FALSE

$$$$
>  <monomer-sequence>
LTCEICGFWCTQKGNLLRHIKL [46L_47T_49E_50I_52G_53F_54W_55C_67L_, Q9UKT9]

>  <label>
FALSE

$$$$
